- System: E.faecalis (Ef)
- assayName: Broth microdilution MIC against E.faecalis (Ef)
- Assay type: cell-based
- experimentalConditions: Enterococcus faecalis, CAMHB supplemented with sodium bicarbonate 6.25 mM; read-out: Ef +bicarb 6.25 (MIC)
Counter-ions that a name gives are not always drawn.

[
  {
    "compound": "CC(C)(N)C(=O)N1CCN(C(=O)Nc2ccn(-c3ccc4c(c3)CCN(C3CCC(N)CC3)C4)c(=O)n2)CC1 (centres unmarked) [Compound 35, Hydrochloride Salt]",
    "MIC": "> 32 µg/mL"
  },
  {
    "compound": "CC(C)(N)C(=O)N1CCN(C(=O)Nc2ccn(-c3ccc4c(c3)CCC(N[C@H]3CC[C@@H](N)C3)C4)c(=O)n2)CC1 (single isomer, unassigned) [Compound 33, Hydrochloride Salt]",
    "MIC": "> 32 µg/mL"
  },
  {
    "compound": "CC(C)(N)C(=O)N1CCN(C(=O)Nc2ccn(-c3ccc4c(c3)CCC(N3CC(CN)C3)C4)c(=O)n2)CC1 (centres unmarked) [Compound 40, Hydrochloride Salt]",
    "MIC": "8 to 32 µg/mL"
  },
  {
    "compound": "CC(C)(N)C(=O)N1CCN(C(=O)Nc2ccn(-c3ccc4c(c3)CC(N[C@H]3CC[C@H](N)CC3)C4)c(=O)n2)CC1 (some centres unmarked) [Compound 38, Hydrochloride Salt]",
    "MIC": "> 32 µg/mL"
  },
  {
    "compound": "CC(C)(N)C(=O)N1CCN(C(=O)Nc2ccn(-c3ccc4c(c3)CC(NC[C@H]3C[C@H](N)C3)C4)c(=O)n2)CC1 (some centres unmarked) [Compound 37, Hydrochloride Salt]",
    "MIC": "> 32 µg/mL"
  },
  {
    "compound": "CC(C)(N)C(=O)N1CCN(C(=O)Nc2ccn(-c3ccc4c(c3)CCC(N[C@H]3C[C@@H](N)C3)C4)c(=O)n2)CC1 (some centres unmarked) [Compound 30, Hydrochloride Salt]",
    "MIC": "8 to 32 µg/mL"
  },
  {
    "compound": "CC(C)(N)C(=O)N1CCN(C(=O)Nc2ccn(-c3ccc4c(c3)OCC(N3CCCC(N)CC3)C4)c(=O)n2)CC1 (centres unmarked) [Compound 22]",
    "MIC": "> 32 µg/mL"
  },
  {
    "compound": "CC(C)(N)C(=O)N1CCN(C(=O)Nc2ccn(-c3ccc4c(c3)CCC(N[C@H]3CC[C@@H](N)C3)C4)c(=O)n2)CC1 (some centres unmarked) [Compound 26, Hydrochloride Salt]",
    "MIC": "> 32 µg/mL"
  },
  {
    "compound": "CC(C)(N)C(=O)N1CCN(C(=O)Nc2ccn(-c3ccc4c(c3)CCC(NC[C@H]3C[C@@H](N)C3)C4)c(=O)n2)CC1 (some centres unmarked) [Compound 32, Hydrochloride Salt]",
    "MIC": "8 to 32 µg/mL"
  },
  {
    "compound": "CC(C)(N)C(=O)N1CCN(C(=O)Nc2ccn(-c3ccc4c(c3)CCC(N[C@H]3C[C@H](N)C3)C4)c(=O)n2)CC1 (some centres unmarked) [Compound 29, Hydrochloride Salt]",
    "MIC": "8 to 32 µg/mL"
  },
  {
    "compound": "CC(C)(N)C(=O)N1CCN(C(=O)Nc2ccn(-c3ccc4c(c3)CC(N[C@H]3CC[C@H](N)C3)C4)c(=O)n2)CC1 (some centres unmarked) [Compound 36, Hydrochloride Salt]",
    "MIC": "> 32 µg/mL"
  }
]

* * *

Reported MIC values for the following compounds.
- Tested on: E.coli (Ec)
- assayName: Broth microdilution MIC against E.coli (Ec)
- Format: cell-based
- experimentalConditions: Escherichia coli; CAMHB supplemented with sodium bicarbonate 6.25 mM; read-out: E. coli + bicarb 6.25 (MIC)
Structures can show the parent of a compound that is named as a salt.
recordedMetric: MIC

[
  {
    "compound": "CC(C)(N)C(=O)N1CCN(C(=O)Nc2ccn(-c3ccc4c(c3)OCC(N3CC5CC5(CN)C3)C4)c(=O)n2)CC1 (centres unmarked) [Compound 23, Hydrochloride Salt]",
    "recordedMetric": "MIC",
    "recordedMeasurement": "8 to 32 µg/mL"
  },
  {
    "compound": "CC(C)(N)C(=O)N1CCN(C(=O)Nc2ccn(-c3ccc4c(c3)CC(N[C@H]3CC[C@H](N)C3)C4)c(=O)n2)CC1 (some centres unmarked) [Compound 36, Hydrochloride Salt]",
    "recordedMetric": "MIC",
    "recordedMeasurement": "< 8 µg/mL"
  },
  {
    "compound": "CC(C)(N)C(=O)N1CCN(C(=O)Nc2ccn(-c3ccc4c(c3)CCN(C3CCC(N)CC3)C4)c(=O)n2)CC1 (centres unmarked) [Compound 35, Hydrochloride Salt]",
    "recordedMetric": "MIC",
    "recordedMeasurement": "< 8 µg/mL"
  },
  {
    "compound": "CC(C)(N)C(=O)N1CCN(C(=O)Nc2ccn(-c3ccc4c(c3)CCC(N[C@H]3CC[C@@H](N)C3)C4)c(=O)n2)CC1 (some centres unmarked) [Compound 26, Hydrochloride Salt]",
    "recordedMetric": "MIC",
    "recordedMeasurement": "< 8 µg/mL"
  },
  {
    "compound": "CC(C)(N)C(=O)N1CCN(C(=O)Nc2ccn(-c3ccc4c(c3)CCC(N3CC(CN)C3)C4)c(=O)n2)CC1 (centres unmarked) [Compound 40, Hydrochloride Salt]",
    "recordedMetric": "MIC",
    "recordedMeasurement": "< 8 µg/mL"
  },
  {
    "compound": "CC(C)(N)C(=O)N1CCN(C(=O)Nc2ccn(-c3ccc4c(c3)CCC(N[C@H]3C[C@@H](N)C3)C4)c(=O)n2)CC1 (some centres unmarked) [Compound 30, Hydrochloride Salt]",
    "recordedMetric": "MIC",
    "recordedMeasurement": "< 8 µg/mL"
  },
  {
    "compound": "CC(C)(N)C(=O)N1CCN(C(=O)Nc2ccn(-c3ccc4c(c3)CCC(N3CC(N)C3)C4)c(=O)n2)CC1 (centres unmarked) [Compound 39, Hydrochloride Salt]",
    "recordedMetric": "MIC",
    "recordedMeasurement": "8 to 32 µg/mL"
  },
  {
    "compound": "CC(C)(N)C(=O)N1CCN(C(=O)Nc2ccn(-c3ccc4c(c3)CCC(N[C@H]3CC[C@H](N)C3)C4)c(=O)n2)CC1 (single isomer, unassigned) [Compound 27, Hydrochloride Salt]",
    "recordedMetric": "MIC",
    "recordedMeasurement": "< 8 µg/mL"
  },
  {
    "compound": "CC(C)(N)C(=O)N1CCN(C(=O)Nc2ccn(-c3ccc4c(c3)CCC(N3CCCC(N)CC3)C4)c(=O)n2)CC1 (centres unmarked) [Compound 43, Hydrochloride Salt]",
    "recordedMetric": "MIC",
    "recordedMeasurement": "< 8 µg/mL"
  },
  {
    "compound": "CC(C)(N)C(=O)N1CCN(C(=O)Nc2ccn(-c3ccc4c(c3)CCC(NC[C@H]3C[C@H](N)C3)C4)c(=O)n2)CC1 (some centres unmarked) [Compound 31, Hydrochloride Salt]",
    "recordedMetric": "MIC",
    "recordedMeasurement": "< 8 µg/mL"
  },
  {
    "compound": "CC(C)(N)C(=O)N1CCN(C(=O)Nc2ccn(-c3ccc4c(c3)CC(N[C@H]3CC[C@H](N)CC3)C4)c(=O)n2)CC1 (some centres unmarked) [Compound 38, Hydrochloride Salt]",
    "recordedMetric": "MIC",
    "recordedMeasurement": "< 8 µg/mL"
  }
]

* * *

- Tested on: E.faecalis (Ef)
- assayName: Broth microdilution MIC against E.faecalis (Ef)
- Assay type: cell-based
- experimentalConditions: Enterococcus faecalis, CAMHB supplemented with sodium bicarbonate 6.25 mM; read-out: Ef +bicarb 6.25 (MIC)
Counter-ions that a name gives are not always drawn.

[
  {
    "compound": "CC(C)(N)C(=O)N1CCN(C(=O)Nc2ccn(-c3ccc4c(c3)CCC(N3CC(N)C3)C4)c(=O)n2)CC1 (centres unmarked) [Compound 39, Hydrochloride Salt]",
    "testedSystem": "E.faecalis (Ef)",
    "MIC": "> 32 µg/mL"
  },
  {
    "compound": "CC(C)(N)C(=O)N1CCN(C(=O)Nc2ccn(-c3ccc4c(c3)CCC(N3CCCC(N)CC3)C4)c(=O)n2)CC1 (centres unmarked) [Compound 43, Hydrochloride Salt]",
    "testedSystem": "E.faecalis (Ef)",
    "MIC": "> 32 µg/mL"
  },
  {
    "compound": "CC(C)(N)C(=O)N1CCN(C(=O)Nc2ccn(-c3ccc4c(c3)OCC(N3CC5CC5(CN)C3)C4)c(=O)n2)CC1 (centres unmarked) [Compound 23, Hydrochloride Salt]",
    "testedSystem": "E.faecalis (Ef)",
    "MIC": "> 32 µg/mL"
  },
  {
    "compound": "CC(C)(N)C(=O)N1CCN(C(=O)Nc2ccn(-c3ccc4c(c3)CCC(NC[C@H]3C[C@H](N)C3)C4)c(=O)n2)CC1 (some centres unmarked) [Compound 31, Hydrochloride Salt]",
    "testedSystem": "E.faecalis (Ef)",
    "MIC": "8 to 32 µg/mL"
  },
  {
    "compound": "CC(C)(N)C(=O)N1CCN(C(=O)Nc2ccn(-c3ccc4c(c3)CCC(N[C@H]3CC[C@H](N)C3)C4)c(=O)n2)CC1 (single isomer, unassigned) [Compound 27, Hydrochloride Salt]",
    "testedSystem": "E.faecalis (Ef)",
    "MIC": "< 8 µg/mL"
  }
]
